FYI, the data here is from patent US10450270B2.

Please respond with reported melting point for every item in the list.
One number for each entry, in °C.

// worked examples, melting point included
compound	quantityUnit	melting point
COC(=O)C(C)(C)NC(=O)C(=O)c1cc(C(=O)Nc2ccc(F)c(C)c2)n(C)c1 [Compound 7]	°C	161
Cn1cc(C(=O)C(=O)NC(C)(C)C)cc1C(=O)Nc1ccc(F)c(F)c1 [Compound 10]	°C	170.7
Cc1cc(NC(=O)c2cc(C(=O)C(=O)NC3(C)COC3)cn2C)ccc1F [Compound 4]	°C	145.1
Cc1cc(NC(=O)c2cc(C(=O)C(=O)N[C@H]3CCOC3)cn2C)ccc1F [Compound 6]	°C	155.7

Here are 2 compounds. What values of melting point were reported for them?
1. Cn1cc(C(=O)C(=O)NC2(C)COC2)cc1C(=O)Nc1ccc(F)c(F)c1 [Compound 11]
2. CC[C@@H](C)NC(=O)C(=O)c1cc(C(=O)Nc2ccc(F)c(C)c2)n(C)c1 [Compound 1]

result:
[180.7, 136.5]

query: Which melting point is listed for Cc1cc(NC(=O)c2cc(C(=O)C(=O)N[C@H](C)C(F)(F)F)cn2C)ccc1F [Compound 5] ?
result: 156.9

* * *

runDescription: Cytotoxicity in HepG2 cells, Resazurin viability assay
testSettings: human
measuredQuantity: CC50 at 4 days

query: Fill in the blank: the reported CC50 at 4 days of Cn1cc(C(=O)C(=O)NC(C)(C)C)cc1C(=O)Nc1cccc(C(F)(F)F)c1 [Compound 12] is ____.
result: > 25 µM

* * *

System: HBV
runDescription: Anti-HBV activity, HepG2.117 inducible HBV producing cell line (Tet-off), intracellular HBV DNA by realtime PCR
Format: cell-based
testSettings: Hepatitis B virus, 72 h; HepG2.117 cells, 3 days of treatment, intracellular HBV DNA; read-out: HepG2 117 EC50
measuredQuantity: pEC50
Answers are plain numbers, as −log10 of the molar value.

These solved cases illustrate the format of a correct answer.
recordSmiles	pEC50
C[C@@H](NC(=O)C(=O)c1cc(C(=O)Nc2ccc(F)c(C#N)c2)n(C)c1)C(F)(F)F	7.18
Cc1cc(NC(=O)c2cc(C(=O)C(=O)NC(C)(C)C(N)=O)cn2C)ccc1F	7.42
Cc1c(C(=O)C(=O)NC(C)(C)C)cn(C)c1C(=O)Nc1ccc(F)c(F)c1	7.96
Cc1c(C(=O)C(=O)NC(C)(C)CCO)cc(C(=O)Nc2ccc(F)c(C#N)c2)n1C	7.92
C[C@@H](NC(=O)C(=O)c1c(Cl)c(C(=O)Nc2ccc(F)c(C#N)c2)n(C)c1Cl)C(F)(F)F	8.22
CC[C@@H](C)NC(=O)C(=O)c1cc(C(=O)Nc2ccc(F)c(C)c2)n(C)c1	7.00
Cc1c(C(=O)C(=O)N[C@@H](C)C(C)(F)F)cc(C(=O)Nc2ccc(F)c(C#N)c2)n1C	8.05
Cn1cc(C(=O)C(=O)NC2(C)COC2)cc1C(=O)Nc1ccc(F)c(F)c1	7.02
Cc1c(C(=O)C(=O)N[C@H](CO)C(C)C)cc(C(=O)Nc2ccc(F)c(C#N)c2)n1C	7.11
Cn1cc(C(=O)C(=O)NC2(C(F)(F)F)CCC2)c(F)c1C(=O)Nc1ccc(F)c(C#N)c1	8.52

List the reported pEC50 of each molecule below.
1. Cn1cc(C(=O)C(=O)NC2(C(F)(F)F)CCC2)c(Cl)c1C(=O)Nc1ccc(F)c(C#N)c1
2. CCCC[C@@H](CO)NC(=O)C(=O)c1cc(C(=O)Nc2ccc(F)c(C#N)c2)n(C)c1C
3. Cc1c(C(=O)C(=O)N[C@H]2CCN(C)C[C@H]2O)cc(C(=O)Nc2ccc(F)c(C#N)c2)n1C
4. Cc1c(C(=O)C(=O)N[C@H](C)C(C)(F)F)cc(C(=O)Nc2ccc(F)c(C#N)c2)n1C
5. Cn1c(C(=O)Nc2ccc(F)c(C#N)c2)c(Cl)c(C(=O)C(=O)NC(C)(C)C)c1C1CC1

result:
8.22
6.68
6.64
8.00
7.66
